Where these numbers come from: PubChem BioAssay AID1851

target: Cytochrome P450 2C19 (Homo sapiens); test: Cytochrome panel assay with activity outcomes; conditions: recombinant CYP, pro-luciferin dealkylation, luminescence, p450-cyp2c19; series mostly up to 57.1 µM
About 5,800 (36%) of roughly 16,000 compounds were called active. Roughly 23% stayed inconclusive and do not appear here. Calls come from the whole dose curve; as a rule, active = well fitted curve in the direction sought with a large enough effect; inconclusive = small, poorly fitted or top-dose-only effect, or effect the other way; inactive = no such curve, though single readings can be large or run the other way. The list shows a part of the results.
Labels: TRUE for active, FALSE for inactive

{"compound": "CC(C)(C)C1CCc2c(C(=O)N/N=C/c3cccs3)csc2C1 (configuration not stated)", "classification": "TRUE"}
{"compound": "CCOc1ccccc1NC(=O)CN1CCC(NC(=O)c2ccccc2)CC1", "classification": "TRUE"}
{"compound": "CCOC(=O)n1c(=O)n(Cc2c(Cl)cccc2Cl)c2ccccc21", "classification": "TRUE"}
{"compound": "Cc1ccc2ncc([N+](=O)[O-])n2c1", "classification": "FALSE"}
{"compound": "CC1CCCC(C)N1C(=O)c1ccccc1Nc1ccc(SC(F)F)cc1 (configuration not stated)", "classification": "TRUE"}
{"compound": "CCN1CCN(C(=O)N[C@H](C(=O)N[C@@H]2C(=O)N3[C@@H]2SC(C)(C)[C@@H]3C(=O)O)c2ccccc2)C(=O)C1=O", "classification": "FALSE"}
{"compound": "CCN(CC)c1ccc(NC(=O)CN2CCN(c3ccccc3F)CC2)cc1", "classification": "TRUE"}
{"compound": "CCOc1ccccc1NC(=O)C(=O)NCC1CCCN1CC (configuration not stated)", "classification": "FALSE"}
{"compound": "Cn1c(=O)n(CCC(=O)O)c2ccccc21", "classification": "FALSE"}
{"compound": "O=C(c1ccc(F)cc1)C1CCN(CCCCc2ccccc2)CC1", "classification": "FALSE"}
{"compound": "O=[N+]([O-])c1ccc(Cl)c(/C=N/N2CCN(Cc3ccccc3Cl)CC2)c1", "classification": "TRUE"}
{"compound": "N#C/C(=C\\c1ccc(Cl)cc1)c1nc2ncccc2[nH]1", "classification": "TRUE"}
{"compound": "O=[N+]([O-])c1ccc(Cl)c(/C=N/N2CCN(Cc3ccccc3)CC2)c1", "classification": "TRUE"}
{"compound": "CCCCN1C(=O)CN(CCc2ccccc2)C(=O)C1c1ccc(OC)cc1 (configuration not stated)", "classification": "TRUE"}
{"compound": "COc1cccc(N2CCN(C(=S)Nc3cccc(C)c3)CC2)c1", "classification": "TRUE"}
{"compound": "O=C(O)c1ccccc1Nc1ccccc1", "classification": "FALSE"}
{"compound": "CC(C)NC(=O)N1CCCC2(CCN(C(=O)c3cc(C(F)(F)F)cc(C(F)(F)F)c3)CC2)C1", "classification": "FALSE"}
{"compound": "COc1ccc(C2C(C(=O)N3CCN(C)CC3)c3ccccc3C(=O)N2C2CCCCC2)cc1 (configuration not stated)", "classification": "FALSE"}
{"compound": "CCOc1cccc2cc(C(N)=O)c(=NCc3ccccc3)oc12", "classification": "TRUE"}
{"compound": "COc1ccccc1NC(=O)CN1CCC(C(=O)c2ccc(F)cc2)CC1", "classification": "TRUE"}
{"compound": "O=C(Nc1ccccc1)/C(=C\\c1ccncc1)NC(=O)c1ccccc1", "classification": "TRUE"}
{"compound": "COc1cc(/C=C(/NC(=O)c2ccccc2)C(=O)Nc2ccccc2)c([N+](=O)[O-])cc1OC", "classification": "TRUE"}
